System: PDE 4
method: PDE 4 enzyme inhibition test (SPA)
Assay type: biochemical, human
experimental_parameters: at 10^-6 M; enzyme from human PMNs
result_type: PDE 4 % inhibition (%)

PDE 4 % inhibition measured on COc1ccc2c(Nc3c(Cl)cncc3Cl)nncc2c1OC1CCCC1 [Compound 4] = 73

PDE 4 % inhibition measured on COc1ccc2c(Cc3c(Cl)cncc3Cl)n[n+]([O-])cc2c1OC1CCCC1 [Compound 2] = 94

PDE 4 % inhibition measured on CCc1nnc(Cc2c(Cl)cncc2Cl)c2cc(OC3CCCC3)c(OC)cc12 [Compound 10] = 80

PDE 4 % inhibition measured on COc1ccc2c(Cc3c(Cl)cncc3Cl)nncc2c1OCCCCCc1ccccc1 [Compound 6] = 79

PDE 4 % inhibition measured on COc1ccc2c(Cc3c(Cl)cncc3Cl)nncc2c1OC1Cc2ccccc2C1 [Compound 5] = 80

PDE 4 % inhibition measured on FC(F)Oc1ccc2c(Cc3c(Cl)cncc3Cl)nncc2c1OC1CCCC1 [Compound 3] = 100

PDE 4 % inhibition measured on COc1ccc2c(Cc3c(Cl)cncc3Cl)nncc2c1OC1CCCC1 [Compound 1] = 84

* * *

tested_on: PDE 4
method: PDE 4 enzyme inhibition test (SPA)
Format: biochemical, human
experimental_parameters: enzyme from human PMNs; 9 concentrations, 4-parameter logistic
result_type: IC50 (nM)

See these solved cases before continuing.
IC50 measured on `CCc1nnc(Cc2c(Cl)cncc2Cl)c2cc(OC3CCCC3)c(OC)cc12` = 74.9

IC50 measured on `COc1ccc2c(Cc3c(Cl)cncc3Cl)n[n+]([O-])cc2c1OC1CCCC1` = 42.4

I: COc1ccc2c(Cc3c(Cl)cncc3Cl)nncc2c1OC1Cc2ccccc2C1
II: COc1ccc2c(Cc3c(Cl)cncc3Cl)nncc2c1OC1CCCC1
Select the item whose IC50 value is smaller, choosing between I and II . In your reply, give the label of the chosen option.
I

* * *

Tested on: TNFα
method: TNFα synthesis inhibition in LPS-stimulated human monocytes (ELISA)
Type: cell-based
experimental_parameters: Monocyte, LPS 1 ng/ml, 16 hours
result_type: IC50 (nM)

See these solved cases before continuing.
Field IC50 (TNFα), entry `COc1ccc2c(Nc3c(Cl)cncc3Cl)nncc2c1OC1CCCC1` : 187

Field IC50 (TNFα), entry `COc1ccc2c(Cc3c(Cl)cncc3Cl)n[n+]([O-])cc2c1OC1CCCC1` : 139

Field IC50 (TNFα), entry COc1ccc2c(Cc3c(Cl)cncc3Cl)n[n+]([O-])cc2c1OC1CCOC1 (centres unmarked) : 389

1: CCc1nnc(Cc2c(Cl)cncc2Cl)c2cc(OC3CCCC3)c(OC)cc12
2: FC(F)Oc1ccc2c(Cc3c(Cl)cncc3Cl)nncc2c1OC1CCCC1
Between 1 and 2 , whose measured IC50 reads higher? In your reply, give the label of the chosen option.
1
(1: 259 nM, 2: 167 nM)

* * *

tested_on: PDE 3 (Homo sapiens, UniProt Q14432)
Construct: Human platelets were prepared from platelet rich plasma (PRP); from tissue; host or cells: human platelets (platelet rich plasma, L. Sacco Hospital, Milan)
Sequence (Q14432 whole entry): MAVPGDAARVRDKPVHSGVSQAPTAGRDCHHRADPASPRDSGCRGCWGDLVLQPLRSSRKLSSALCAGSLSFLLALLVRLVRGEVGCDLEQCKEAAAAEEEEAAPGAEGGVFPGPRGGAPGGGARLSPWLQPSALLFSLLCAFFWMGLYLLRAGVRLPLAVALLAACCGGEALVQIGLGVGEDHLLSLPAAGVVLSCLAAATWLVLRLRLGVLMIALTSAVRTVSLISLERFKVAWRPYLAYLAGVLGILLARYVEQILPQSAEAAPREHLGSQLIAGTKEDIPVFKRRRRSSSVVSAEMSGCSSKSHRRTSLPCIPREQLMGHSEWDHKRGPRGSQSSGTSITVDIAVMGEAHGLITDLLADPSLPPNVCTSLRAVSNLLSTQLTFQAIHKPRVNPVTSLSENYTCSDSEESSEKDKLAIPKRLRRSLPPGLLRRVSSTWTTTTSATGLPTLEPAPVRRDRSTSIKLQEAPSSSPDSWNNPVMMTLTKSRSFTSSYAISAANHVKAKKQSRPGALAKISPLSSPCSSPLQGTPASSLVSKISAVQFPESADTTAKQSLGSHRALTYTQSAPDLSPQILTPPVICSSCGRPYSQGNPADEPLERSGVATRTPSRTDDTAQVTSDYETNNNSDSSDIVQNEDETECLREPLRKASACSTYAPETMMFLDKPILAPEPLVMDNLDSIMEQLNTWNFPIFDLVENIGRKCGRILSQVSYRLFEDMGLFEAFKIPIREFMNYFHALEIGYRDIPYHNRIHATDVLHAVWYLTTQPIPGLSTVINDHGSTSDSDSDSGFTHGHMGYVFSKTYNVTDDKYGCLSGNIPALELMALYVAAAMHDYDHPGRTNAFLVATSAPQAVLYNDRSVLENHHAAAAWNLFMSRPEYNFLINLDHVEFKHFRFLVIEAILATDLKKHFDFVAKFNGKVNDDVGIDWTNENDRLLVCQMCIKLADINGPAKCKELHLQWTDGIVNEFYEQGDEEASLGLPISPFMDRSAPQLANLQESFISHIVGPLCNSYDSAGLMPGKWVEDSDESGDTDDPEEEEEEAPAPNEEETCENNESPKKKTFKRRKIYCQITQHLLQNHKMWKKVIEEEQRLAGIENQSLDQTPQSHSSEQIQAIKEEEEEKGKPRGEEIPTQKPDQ
method: PDE 3 enzyme inhibition test (SPA)
Format: biochemical
experimental_parameters: at 10^-6 M; enzyme from human platelets
result_type: inhibition at 1 µM (%)

See these solved cases before continuing.
inhibition at 1 µM measured on `CCc1nnc(Cc2c(Cl)cncc2Cl)c2cc(OC3CCCC3)c(OC)cc12` = 20

inhibition at 1 µM measured on `FC(F)Oc1ccc2c(Cc3c(Cl)cncc3Cl)nncc2c1OC1CCCC1` = 5

inhibition at 1 µM measured on `COc1ccc2c(Cc3c(Cl)cncc3Cl)nncc2c1OCCCCCc1ccccc1` = 25

inhibition at 1 µM measured on `COc1ccc2c(Nc3c(Cl)cncc3Cl)nncc2c1OC1CCCC1` = 8

A: COc1ccc2c(Cc3c(Cl)cncc3Cl)n[n+]([O-])cc2c1OC1CCCC1
B: FC(F)Oc1ccc2c(Cc3c(Cl)cncc3Cl)nncc2c1OC1CCOC1 (centres unmarked)
C: COc1ccc2c(Cc3c(Cl)cncc3Cl)nncc2c1OC1CCCC1
D: COc1ccc2c(Cc3c(Cl)cncc3Cl)nncc2c1OC1CCOC1 (centres unmarked)
Sort the 4 molecules by inhibition at 1 µM; largest first, smallest last. Hello, could you send the labels back in the order asked? Thank you.
A, B, D, C
